# System: SW-620 colon
# ASSAY TEXT: NCI tumour cell line growth inhibition, 48 h
Parameter: TGI. Scope: all listed entries.

- C=CCOC1=C(OC(C)=O)C(=O)OC1C1COC(C)(C)O1 (stereo not drawn): > 59.7 µM

# input Hello, I am looking for reported TGI with SW-620 colon for CCC(=O)OCC1OC(n2cnc3c(=S)nc(N)[nH]c32)C(OC(=O)CC)C1OC(=O)CC (stereo not drawn) . Could you help?
# output > 100 µM

# input What TGI appears in the records for this compound with SW-620 colon? O=c1[nH]cnc2c1ncn2C1CCC(CO)O1 (stereo not drawn)
# output > 1000 µM

# input Any idea what TGI came out for CCOC(=O)CNC(=O)C(CSCC1C(=O)Nc2ccccc21)NC(=O)CCC(N)C(=O)OCC (stereo not drawn) on SW-620 colon?
# output 2.73 µM

# input TGI of O=C1c2ccccc2C(=O)N1[C@@H](Cc1ccccc1)C(=O)n1cccc1CO on SW-620 colon?
# output > 100 µM

# input Quick check: TGI on SW-620 colon, item Cc1cc(=O)[nH]c(-n2[nH]c3c(c2=O)CCCC3)n1 ?
# output > 100 µM

# input // lookup TGI | system=SW-620 colon | key= CCC(=O)Nc1cccc(NC(=O)c2c(Cl)c(Cl)c(Cl)c(Cl)c2-c2nc3ccccc3[nH]2)c1
# output > 100 µM

# input For the record COC(=O)C1=CC(=O)OC1(OO)c1ccc(Br)cc1 (stereo not drawn) , what value of TGI is listed for SW-620 colon?
# output > 100 µM

# input Request body: readout TGI, system SW-620 colon, query CC(=O)N(C)C(C(=O)N1CC(C)CC1C(=O)N(C)C1C(=O)NC(CC(C)C)C(=O)N2CC(C)CC2C(=O)NC(CC(C)C)C(=O)N(C)C(C(C)C)C(=O)N2CCCC2C(=O)N(C)C(CC(C)C)C(=O)NCC(=O)OC1C)C(C)C (stereo not drawn) . Return the value.
# output > 100 µM

---

# Tested on: OVCAR-3 ovarian
# ASSAY TEXT: NCI tumour cell line growth inhibition, 48 h
READOUT: TGI

• Cc1ccc(O)c(-c2cc(-c3cccc(Br)c3)c(C#N)c(N)n2)c1 = > 100 µM
• Nc1cnc(Nc2cccc3ccccc23)o1 = > 10 µM
• COc1cc(/C=C/c2cc(/C=C/c3ccc(O)c(OC)c3)n(C(=O)Cc3ccccc3)n2)ccc1O = 5.27 µM

# input Entry under review: O=C(O)C1(Nc2ccc(Cl)cc2)CCCC1 . Reported TGI?
# output > 100 µM

# input Any idea what its TGI is? The compound is [O-][n+]1c(-c2ccccc2)oc2ccccc21
# output 65.9 µM

# input // TGI lookup, key: O=C1c2ccccc2C(=O)N1[C@@H](Cc1ccccc1)C(=O)n1cccc1CO
# output > 100 µM

---

# Tested on: MDA-N
# ASSAY TEXT: NCI tumour cell line growth inhibition, 48 h
READOUT: TGI

* COc1cccc2c1C(=O)c1c(O)c3c(c(O)c1C2=O)C[C@@](O)(C(=O)CO)C[C@@H]3OC1CC(N(C)C)C(O)C(C)O1 (some centres undefined) | 0.0833 µM
* NC(=O)C1CCCNC1 (centres undefined) | > 100 µM
* CCOC(=O)c1csc(NC(=O)CN2CCN(c3ccccc3)CC2)n1 | > 100 µM

Shift focus to the following entry.
# input Quick check: TGI of C=CC(O)(CBr)CCC(Br)C(C)(C)Cl (centres undefined) ?
# output > 10 µM
